Source of measurements: PubChem BioAssay AID1159580

test: chemical genetic growth profiling, strain panel (AID 1159580);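 note: tested at 20 µM; growth read once vehicle control cultures reached saturation at 30 °C; 1 = growth at the plate median or of vehicle wells; lower values mean less growth of the strain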; details: S. cerevisiae deletion strains, growth OD, locus YNL322C, strain KRE1 (second series), hits give low values
The campaign covered roughly 5,500 compounds. About 2,000 (36%) were called active. Inconclusive results (about 18%) are left out. Some of the results follow.
metric: normalized growth
Give bare numbers.

Examples with their reported normalized growth follow.
>  <compound>
CCCCC/C=C/CCC(=O)N[C@H]1[C@H](Oc2c3cc4cc2Oc2ccc(cc2Cl)[C@@H](O[C@@H]2O[C@H](CO)[C@@H](O)[C@H](O)[C@H]2NC(C)=O)[C@@H]2NC(=O)[C@H](NC(=O)[C@@H]4NC(=O)[C@H]4NC(=O)C(Cc5ccc(c(Cl)c5)O3)NC(=O)[C@H](N)c3ccc(O)c(c3)Oc3cc(O)cc4c3)c3ccc(O)c(c3)-c3c(OC4O[C@H](CO)[C@@H](O)[C@H](O)[C@@H]4O)cc(O)cc3[C@@H](C(=O)O)NC2=O)O[C@H](CO)[C@@H](O)[C@@H]1O (stereo partly specified)

>  <normalized growth>
0.991

$$$$
>  <compound>
CN1C2C[C@H](OC(=O)[C@H](CO)c3ccccc3)C[C@H]1[C@@H](O)C2

>  <normalized growth>
1.01

$$$$

Batch lookup, normalized growth per entry.
1. CCOC(=O)n1ccn(C)c1=S
2. CN1C2CCC1CC(OC(c1ccccc1)c1ccccc1N)C2 (stereo unspecified)

[1.01, 1]

Batch lookup, normalized growth per entry.
1. COc1ccc(OC)c(C(O)CNC(=O)CN)c1 (stereo unspecified)
2. CN1C2CCC1CC(OC(c1ccccc1)c1ccccc1)C2 (stereo unspecified)

1. 0.997
2. 0.98

* * *

experiment: chemical genetic growth profiling, strain panel (AID 1159580);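 note: tested at 20 µM; growth read once vehicle control cultures reached saturation at 30 °C; 1 = growth at the plate median or of vehicle wells; lower values mean less growth of the strain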; details: S. cerevisiae deletion strains, growth OD, locus YMR307W, strain GAS1, hits give low values
Screen size: about 5,500 compounds; about 2,000 (36%) were called active. Not shown: some 18% with an inconclusive outcome. Some of the results follow.
What normalized growth was measured for each of the following?
One number for each entry.

Examples with their reported normalized growth follow.
>  <molecule>
O=C(NNC(=S)Nc1cccc(Cl)c1)C1CC1

>  <normalized growth>
0.684

$$$$
>  <molecule>
Cn1c2c(c(=O)n(C)c1=O)CN(CCCCCCO)CN2

>  <normalized growth>
1.04

$$$$
>  <molecule>
O=C(NNC(=S)Nc1cccc(Cl)c1)c1ccncc1

>  <normalized growth>
1.02

$$$$
>  <molecule>
Cn1c(=O)c2c(ncn2CC(O)CO)n(C)c1=O (stereo not given)

>  <normalized growth>
1.05

$$$$
>  <molecule>
COc1ccc(/C=C2\CC/C(=C\c3ccc(OC)c(OC)c3)C2=O)cc1OC

>  <normalized growth>
0.817

$$$$
>  <molecule>
COc1ccc(-c2coc3cc(O)ccc3c2=O)c(OC)c1O

>  <normalized growth>
1.16

$$$$
>  <molecule>
COc1ccccc1-c1coc2cc(O)ccc2c1=O

>  <normalized growth>
0.909

$$$$
>  <molecule>
COc1ccc2c(c1)OC/C(=C\c1ccc(OC)c(O)c1)C2=O

>  <normalized growth>
0.557

$$$$

Batch lookup, normalized growth per entry.
1. CN1CC(=O)N=C1N
2. COc1ccc2c(c1)OC/C(=C/c1ccc(OC)c(OC)c1)C2=O

[0.998, 0.955]
